Test system: HUVEC
Assay: Antiproliferative activity against HUVEC assessed as growth inhibition rate after 24 hrs by MTT assay
Format: functional, cell-based
Conditions: Homo sapiens
Criterion: IC50 strictly under 40 µM. Met: rule met. Not met: rule not met.

INSERT INTO results (molecule, group_label) VALUES
  ('COc1cc2ccc(=O)oc2cc1OCC(=O)c1ccc(Br)cc1', 'rule met'),
  ('COc1cc2ccc(=O)oc2cc1OCC(=O)c1ccc(Cl)cc1', 'rule met'),
  ('COc1cc2ccc(=O)oc2cc1OCC(=O)c1ccccc1', 'rule not met'),
  ('COc1ccc(C(=O)COc2cc3oc(=O)ccc3cc2OC)cc1', 'rule met'),
  ('COc1cc2ccc(=O)oc2cc1OCC(O)CN1CCCCC1 (stereo unspecified)', 'rule met'),
  ('COc1cc2ccc(=O)oc2cc1OCC1CO1 (stereo unspecified)', 'rule met');

====

System: PANC-1
Experiment: Cytotoxicity against human PANC1 cells after 24 hrs by MTT assay
Type: functional, cell-based
Conditions: PANC-1, 24 h
Here the recorded IC50 is given for each entry.
QUANTITY: IC50

INSERT INTO results (compound, experimental_system, result) VALUES
  ('COc1cc2ccc(=O)oc2cc1O', 'PANC-1', '> 100 µM'),
  ('COc1cc2ccc(=O)oc2cc1OCC(O)CN1CCCCC1 (centres undefined)', 'PANC-1', '> 100 µM'),
  ('COc1cc2ccc(=O)oc2cc1OCC(=O)c1ccc(Br)cc1', 'PANC-1', '63.7 µM'),
  ('COc1cc2ccc(=O)oc2cc1OCC(=O)c1ccc(Cl)cc1', 'PANC-1', '19.8 µM');

====

Parameter IC50: see the listing below.
System: MDA-MB-435
Assay: Cytotoxicity against human MDA-MB-435 cells after 24 hrs by MTT assay
Assay type: functional, cell-based
Settings: MDA-MB-435, 24 h
QUANTITY: IC50

INSERT INTO measurements (compound, result) VALUES
  ('COc1cc2ccc(=O)oc2cc1O', '> 100 µM'),
  ('COc1cc2ccc(=O)oc2cc1OCC(=O)c1ccc(Br)cc1', '> 100 µM'),
  ('COc1cc2ccc(=O)oc2cc1OCC(=O)c1ccc(Cl)cc1', '92.4 µM'),
  ('COc1cc2ccc(=O)oc2cc1OCC(O)CN1CCCCC1 (centres undefined)', '63 µM');

====

System: HUVEC
Experiment: Antiproliferative activity against HUVEC assessed as growth inhibition rate at 100 uM after 24 hrs by MTT assay
Format: functional
Conditions: Homo sapiens, read-out: GI
QUANTITY: inhibition of growth at 100 µM

INSERT INTO results (compound, experimental_system, result) VALUES
  ('COc1cc2ccc(=O)oc2cc1OCC(=O)c1ccc(Cl)c(Cl)c1', 'HUVEC', '42.8%'),
  ('COc1cc2ccc(=O)oc2cc1OCCCCBr', 'HUVEC', '16.9%'),
  ('COc1cc2ccc(=O)oc2cc1OCCN1CCCC1', 'HUVEC', '7.9%'),
  ('COc1cc2ccc(=O)oc2cc1OCCN1CCOCC1', 'HUVEC', '1.9%'),
  ('COc1cc2ccc(=O)oc2cc1OCCCl', 'HUVEC', '3.3%'),
  ('COc1cc2ccc(=O)oc2cc1OCCCCl', 'HUVEC', '9.4%'),
  ('COc1cc2ccc(=O)oc2cc1OCC(O)CN1CCCCC1 (stereo not drawn)', 'HUVEC', '80.7%'),
  ('COc1ccc(C(=O)COc2cc3oc(=O)ccc3cc2OC)cc1', 'HUVEC', '85.6%'),
  ('COc1cc2ccc(=O)oc2cc1OCC(O)CN1CCCC1 (stereo not drawn)', 'HUVEC', '0.3%'),
  ('COc1cc2ccc(=O)oc2cc1OCC1CO1 (stereo not drawn)', 'HUVEC', '95.5%'),
  ('COc1cc2ccc(=O)oc2cc1OCCN1CCCCC1', 'HUVEC', '6.1%'),
  ('COc1cc2ccc(=O)oc2cc1OCC(=O)c1ccc([N+](=O)[O-])cc1', 'HUVEC', '27.2%'),
  ('CCN(CC)CC(O)COc1cc2oc(=O)ccc2cc1OC (stereo not drawn)', 'HUVEC', '0.3%');
